Listing: Percent IL-13 R130Q (30 ng/ml) Binding of selected binders
target: T1, human IL-13 R130Q variant (R110Q of the mature chain) (human, UniProt P35225 35-146, Biotinylated on amines (NHS-LC-biotin, 4:1) in ELISA, panning and competition assays. The letters are unchanged.); test: direct binding ELISA, mAb captured by anti-human Fc, biotinylated IL-13 R130Q, crude supernatant;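 also: 100% is the positive control mAb signal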
T1 construct: R130Q counts from Met 1 of the signal peptide, R110Q on the mature chain; Bought from Peprotech; also called IL-13 R110Q; b-R130Q
T1 sequence (P35225 35-146 limits assumed, stated change not applied): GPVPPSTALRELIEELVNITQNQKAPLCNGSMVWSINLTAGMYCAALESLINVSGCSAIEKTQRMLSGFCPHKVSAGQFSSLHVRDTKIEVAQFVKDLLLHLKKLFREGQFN
I only need the number, in %, no unit after it.

Examples with their reported Percent IL-13 R130Q (30 ng/ml) Binding follow.
Lc8Hc2 (antibody, V domains shown) VH: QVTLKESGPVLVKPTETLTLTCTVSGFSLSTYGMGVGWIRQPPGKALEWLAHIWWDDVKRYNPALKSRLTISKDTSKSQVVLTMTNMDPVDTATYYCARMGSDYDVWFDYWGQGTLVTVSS VL: DIQMTQSPSTLSASVGDRVTITCRASKSISKYLAWYQQKPGKAPKLLIYSGSTLQSGVPSRFSGSGSGTEFTLTISSLQPDDFATYYCQQHNEYPYTFGQGTRLEIK: 81.1
Lc5Hc2 (antibody, V domains shown) VH: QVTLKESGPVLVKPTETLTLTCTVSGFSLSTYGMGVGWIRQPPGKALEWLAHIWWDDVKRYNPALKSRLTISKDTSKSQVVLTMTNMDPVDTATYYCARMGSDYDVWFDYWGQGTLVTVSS VL: DIQLTQSPSFLSASVGDRVTITCRASKSISKYLAWYQQKPGKAPKLLIYSGSTLQSGVPSRFSGSGSGTEFTLTISSLQPEDFATYYCQQHNEYPYTFGQGTKVEIK: 85.9

Then there is this binder:
So what does the record say about Percent IL-13 R130Q (30 ng/ml) Binding for Lc12Hc1 (antibody, V domains shown) VH: QVTLKESGPALVKPTQTLTLTCTFSGFSLSTYGMGVGWIRQPPGKALEWLAHIWWDDVKRYNPALKSRLTISKDTSKNQVVLTMTNMDPVDTATYYCARMGSDYDVWFDYWGQGTLVTVSS VL: DIQMTQSPSSLSASVGDRVTITCRASKSISKYLAWYQQKPEKAPKSLIYSGSTLQSGVPSRFSGSGSGTDFTLTISSLQPEDFATYYCQQHNEYPYTFGGGTKVEIK ?
36.4
